- assayedSystem: CFTR-mediated chloride transport in human intestinal epithelial enteroid cells (Homo sapiens, UniProt P13569)
- Sequence (P13569 with tags, fused parts or gaps DEL508-508): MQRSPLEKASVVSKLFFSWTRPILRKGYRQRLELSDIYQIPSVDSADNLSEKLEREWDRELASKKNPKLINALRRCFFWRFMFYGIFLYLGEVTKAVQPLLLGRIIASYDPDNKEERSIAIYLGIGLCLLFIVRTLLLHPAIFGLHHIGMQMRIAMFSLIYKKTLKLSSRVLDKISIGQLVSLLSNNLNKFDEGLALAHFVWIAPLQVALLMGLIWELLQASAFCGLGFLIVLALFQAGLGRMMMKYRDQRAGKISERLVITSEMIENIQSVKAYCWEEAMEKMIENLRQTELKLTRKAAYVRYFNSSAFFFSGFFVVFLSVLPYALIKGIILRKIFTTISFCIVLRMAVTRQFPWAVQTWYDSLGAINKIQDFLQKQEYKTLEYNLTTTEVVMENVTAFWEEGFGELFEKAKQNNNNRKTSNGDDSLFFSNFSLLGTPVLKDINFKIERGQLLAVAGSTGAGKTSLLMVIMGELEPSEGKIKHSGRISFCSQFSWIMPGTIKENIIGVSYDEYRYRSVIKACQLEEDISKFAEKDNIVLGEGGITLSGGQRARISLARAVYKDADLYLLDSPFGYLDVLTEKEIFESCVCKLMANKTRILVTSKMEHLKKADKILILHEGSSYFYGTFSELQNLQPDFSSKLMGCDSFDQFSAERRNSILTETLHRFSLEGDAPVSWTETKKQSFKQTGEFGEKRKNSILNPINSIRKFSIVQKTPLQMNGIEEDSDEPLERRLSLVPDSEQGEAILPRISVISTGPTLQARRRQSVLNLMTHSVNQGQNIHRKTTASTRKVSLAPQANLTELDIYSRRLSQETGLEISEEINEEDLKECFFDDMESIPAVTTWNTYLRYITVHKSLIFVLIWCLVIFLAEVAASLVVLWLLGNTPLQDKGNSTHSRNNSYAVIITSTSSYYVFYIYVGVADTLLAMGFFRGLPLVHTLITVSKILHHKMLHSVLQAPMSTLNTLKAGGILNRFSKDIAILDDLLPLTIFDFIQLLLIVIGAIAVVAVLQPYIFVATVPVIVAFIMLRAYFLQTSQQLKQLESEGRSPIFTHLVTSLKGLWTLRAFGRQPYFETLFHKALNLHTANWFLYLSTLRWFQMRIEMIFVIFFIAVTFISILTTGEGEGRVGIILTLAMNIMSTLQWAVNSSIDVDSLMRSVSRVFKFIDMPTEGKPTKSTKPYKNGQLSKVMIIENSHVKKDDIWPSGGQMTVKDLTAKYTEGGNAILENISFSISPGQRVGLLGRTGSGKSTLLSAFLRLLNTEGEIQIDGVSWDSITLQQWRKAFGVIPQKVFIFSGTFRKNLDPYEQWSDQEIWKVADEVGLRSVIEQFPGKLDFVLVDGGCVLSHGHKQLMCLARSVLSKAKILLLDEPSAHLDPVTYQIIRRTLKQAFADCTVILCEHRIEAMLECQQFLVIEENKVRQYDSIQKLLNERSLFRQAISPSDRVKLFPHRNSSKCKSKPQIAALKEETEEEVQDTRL
- assayDetails: Membrane potential dye, Enteroid Assay A
- Format: cell-based
- protocolConditions: Enteroid Assay A; read-out: Ent. A EC50
outcomeMeasure: EC50

Consider the reported EC50 for these compounds:
compound="Cc1cccc(C)c1-c1cc2nc(n1)NS(=O)(=O)c1cccc(c1)C(=O)N1C[C@@H](CNC[C@@H]1CC(C)(C)C)O2 [Compound 135]" outcomemeasure=EC50 assayvalue="< 1000 nM"
compound="Cc1cccc(C)c1-c1cc2nc(n1)NS(=O)(=O)c1cccc(c1)C(=O)N1CCCN(CCC(C)(C)C)CC(C1)O2 (stereo not shown) [Compound 206]" outcomemeasure=EC50 assayvalue="< 1000 nM"
compound="Cc1cccc(C)c1-c1cc2nc(n1)NS(=O)(=O)c1cccc(c1)C(=O)N1CCN(CC3(C)CCOCC3)C[C@H](C1)O2 [Compound 14]" outcomemeasure=EC50 assayvalue="< 1000 nM"
compound="Cc1cccc(C)c1-c1cc2nc(n1)NS(=O)(=O)c1cccc(c1)C(=O)N1CCN(C3CCC3(C)C)C[C@H](C1)O2 (single isomer, unassigned) [Compound 10]" outcomemeasure=EC50 assayvalue="< 1000 nM"
compound="Cc1cccc(C)c1-c1cc2nc(n1)NS(=O)(=O)c1cccc(c1)C(=O)N1CCN(CCC(C)(C)C)CC(O2)C1CC(C)C (single isomer, unassigned) [Compound 92]" outcomemeasure=EC50 assayvalue="< 1000 nM"
compound="Cc1cccc(C)c1-c1cc2nc(n1)NS(=O)(=O)c1cccc(c1)C(=O)N1CC(C)(C)CC(O2)C1CC(C)C (single isomer, unassigned) [Compound 233]" outcomemeasure=EC50 assayvalue="< 1000 nM"

Now take the following compound into account.
query: Provide one value: measured EC50 of Cc1cccc(C)c1-c1cc2nc(n1)NS(=O)(=O)c1cccc(c1)C(=O)N1C[C@@H](CN(C(=O)OC(C)(C)C)C[C@@H]1CC(C)(C)C)O2 [Compound 134]
result: < 1000 nM

====

Below, each entry is listed with its recorded pEC50.
- assayedSystem: CFTR-mediated chloride transport in human intestinal epithelial enteroid cells (Homo sapiens)
- assayDetails: Membrane potential dye, Enteroid Assay A
- Format: cell-based
- protocolConditions: Enteroid Assay A; read-out: Ent. A EC50
pEC50: −log10 of the molar value.

# example entries with known answers
compound=Cc1cccc(C)c1-c1cc2nc(n1)NS(=O)(=O)c1cccc(c1)C(=O)N1CCN(C(=O)OC(C)(C)C)[C@H](CC(C)C)[C@H](C1)O2 assayvalue="> 6.00"
compound="Cc1cccc(C)c1-c1cc2nc(n1)NS(=O)(=O)c1cccc(c1)C(=O)N1CCN(C(=O)OCc3ccccc3)C[C@@H](O2)[C@H]1C (single isomer, unassigned)" assayvalue="4.52 to 5.52"
compound=CCC(CC)N1CCN2C[C@@H](C1)Oc1cc(-c3c(C)cccc3C)nc(n1)NS(=O)(=O)c1cccc(c1)C2=O assayvalue="> 6.00"
compound=Cc1cccc(C)c1-c1cc2nc(n1)NS(=O)(=O)c1cccc(c1)C(=O)N1Cc3cc(C(C)(C)C)ccc3[C@H](O2)[C@H]1CC(C)C assayvalue="> 6.00"
compound=Cc1cccc(C)c1-c1cc2nc(n1)NS(=O)(=O)c1cccc(c1)C(=O)N1C[C@@H](CNC[C@@H]1CCC(C)C)O2 assayvalue="> 6.00"

Then there is this compound:
query: Provide only the value of recorded pEC50 for Cc1cccc(C)c1-c1cc2nc(n1)NS(=O)(=O)c1cccc(c1)C(=O)N1CCN(CCC3C4(CC4)C34CC4)C[C@H](C1)O2
result: 5.52 to 6.00
